- Measurement target: human GST-p38 kinase alpha (Homo sapiens)
- Construct: The coding region of the human p38a cDNA was obtained by PCR-amplification from RNA isolated from the human monocyte cell line THP.1; made in house; host or cells: E. coli DH10B
- Run description: p38 kinase in vitro assay, second format, phosphorylation of EGFRP with 33P-ATP
- Type: biochemical
- Conditions used: p38α in vitro, EGFRP assay procedure; read-out: p38^2 IC50
- Protocol: A second assay format was also employed that is based on p38 kinase alpha induced phosphorylation of EGFRP (epidermal growth factor receptor peptide, a 21 mer) in the presence of ^33P-ATP. […] Compounds were evaluated in 50 μl reaction volumes in the presence of 25 mM Hepes pH 7.5, 10 mM magnesium acetate, 4% glycerol, 0.4% bovine serum albumin, 0.4 mM DTT, 50 μM unlabeled ATP, 25 μg EGFRP (200 μM), and 0.05 uCi gamma ^33P-ATP. […]
Property name: IC50 (nM)

OCCn1cc(-c2ccnc(/C=C/c3ccc(F)cc3)c2)c(-c2ccc(F)cc2)n1; 15

A. Cn1cc(-c2ccncc2)c(-c2ccc(Br)cc2)n1
B. Fc1ccc(-c2n[nH]cc2-c2ccnc(F)c2)cc1
// pick min by IC50: A , B Answer format: the label of the selected item.
B

###

- Measurement target: human p38 kinase alpha (Homo sapiens)
- Construct: The coding region of the human p38a cDNA was obtained by PCR-amplification from RNA isolated from the human monocyte cell line THP.1; GST (N); made in house; host or cells: E. coli DH10B
- Run description: p38 kinase in vitro assay, phosphorylation of biotinylated PHAS-I with gamma 32P-ATP
- Type: biochemical
- Conditions used: p38α in vitro, PHAS-I assay procedure; read-out: p38^1 IC50
pIC50: −log10 of the molar value.
Property name: pIC50

Example cases with answers are listed next.
CCN(CC)CCn1cc(-c2ccncc2)c(-c2ccc(F)cc2)n1 [Example A-284]; 6.01
OCCCNc1cc(-c2c[nH]nc2-c2ccc(F)cc2)ccn1 [Example A-282]; 7.35
OCCNc1cc(-c2c[nH]nc2-c2ccc(F)cc2)ccn1 [Example A-280]; 6.87
Cn1cc(-c2ccncc2)c(-c2ccc(F)cc2)n1 [Example A-212]; 6.31
Fc1ccc(-c2n[nH]cc2-c2ccnc3ccccc23)cc1 [Example A-291]; 6.41

I. Fc1ccc(-c2n[nH]c(NCCCN3CCOCC3)c2-c2ccncc2)cc1 [Example A-286]
II. CCN(CC)CCn1cc(-c2ccnc(NCc3ccc(F)cc3)c2)c(-c2ccc(F)cc2)n1 [Example A-279]
III. CN(C)CCn1cc(-c2ccnc(CCc3ccc(F)cc3)c2)c(-c2ccc(F)cc2)n1 [Example A-275]
IV. C#CCNc1[nH]nc(-c2ccc(F)cc2)c1-c1ccncc1 [Example A-288]
V. CCN(CC)CCn1cc(-c2ccnc(F)c2)c(-c2ccc(F)cc2)n1 [Example A-278]
Please put the entries in order of rising pIC50. Form field (ranking): labels in requested order.
III, V, I, IV, II
(III: 4.99, V: 6.55, I: 7.24, IV: 7.77, II: 8.30)

###

- System: human TNF
- Run description: TNF inhibition: human whole blood assay
- Format: cell-based
- Conditions used: Homo sapiens, Table 8, human whole blood, LPS; read-out: TNF Inhibition-Human Whole Blood Assay
Property name: IC50

Example cases with answers are listed next.
COC(=O)N1CCN(c2[nH]nc(-c3ccc(Cl)cc3)c2-c2ccncc2)CC1 [Example A-319, monohydrate]; > 25 µM
CCOC(=O)N1CCC(Nc2n[nH]c(-c3ccc(F)cc3)c2-c2ccncc2)CC1 [Example A-337, monohydrate]; > 25 µM

Consider now this further compound.
Bench note: what IC50 did COc1ccccc1Nc1nccc(-c2cn[nH]c2-c2ccc(F)cc2)n1 show?
> 25 µM

###

- Measurement target: human p38 kinase alpha (Homo sapiens, UniProt Q16539)
- Construct: The coding region of the human p38a cDNA was obtained by PCR-amplification from RNA isolated from the human monocyte cell line THP.1; GST (N); made in house; host or cells: E. coli DH10B
- Sequence (Q16539 whole entry): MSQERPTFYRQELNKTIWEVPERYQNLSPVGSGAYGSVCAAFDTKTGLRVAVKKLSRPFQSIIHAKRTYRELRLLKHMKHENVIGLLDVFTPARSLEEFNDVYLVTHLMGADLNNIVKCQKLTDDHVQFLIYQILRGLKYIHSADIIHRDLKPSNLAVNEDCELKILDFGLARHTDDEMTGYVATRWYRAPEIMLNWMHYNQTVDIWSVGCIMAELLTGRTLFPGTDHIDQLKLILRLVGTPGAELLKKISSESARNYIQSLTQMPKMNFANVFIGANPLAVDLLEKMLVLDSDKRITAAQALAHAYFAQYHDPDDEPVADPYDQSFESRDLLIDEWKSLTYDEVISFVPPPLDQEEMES
- Run description: p38 kinase in vitro assay, phosphorylation of biotinylated PHAS-I with gamma 32P-ATP
- Type: biochemical
- Conditions used: read-out: P38 alpha kinase IC50
pIC50: −log10 of the molar value.
Property name: pIC50

C[C@@H](NC(=O)Cc1cccs1)c1[nH]nc(-c2ccc(F)cc2)c1-c1ccncc1 [Example B-0423]; 6.74
CCCNC(=O)NCc1[nH]nc(-c2ccc(F)cc2)c1-c1ccncc1 [Example B-0213]; 6.51
CCCOC(=O)N[C@H](C)c1[nH]nc(-c2ccc(F)cc2)c1-c1ccncc1 [Example B-0425]; 6.59

A. CC(C)COC(=O)NCc1[nH]nc(-c2ccc(F)cc2)c1-c1ccncc1 [Example B-0009]
B. Cc1ccc(S(=O)(=O)N[C@@H](Cc2ccccc2)C(=O)N[C@H](C)c2[nH]nc(-c3ccc(F)cc3)c2-c2ccncc2)cc1 [Example B-0383]
Between these two entries, A and B , state which has the higher pIC50. Answer format: the label of the selected item.
A

P. Cc1ccc(C(=O)NCc2[nH]nc(-c3ccc(F)cc3)c2-c2ccncc2)cc1 [Example B-0269]
Q. O=C(NCc1[nH]nc(-c2ccc(F)cc2)c1-c1ccncc1)c1cccc(Cl)c1Cl [Example B-0279]
R. O=C(COc1ccc(Cl)cc1)NCc1[nH]nc(-c2ccc(F)cc2)c1-c1ccncc1 [Example B-0093]
S. CCc1ccc(S(=O)(=O)N[C@H](C)c2[nH]nc(-c3ccc(F)cc3)c2-c2ccncc2)cc1 [Example B-0460]
T. CC(Oc1ccccc1)C(=O)NCc1[nH]nc(-c2ccc(F)cc2)c1-c1ccncc1 (centres unmarked) [Example B-0202]
Place the items in sequence of falling pIC50. Form field (ranking): labels in requested order.
S, T, Q, R, P
(S: 7.21, T: 6.26, Q: 5.86, R: 5.50, P: 5.01)

1. C[C@@H](NC(=O)NCc1ccccc1)c1[nH]nc(-c2ccc(F)cc2)c1-c1ccncc1 [Example B-0403]
2. C[C@@H](NC(=O)c1c(F)cccc1C(F)(F)F)c1[nH]nc(-c2ccc(F)cc2)c1-c1ccncc1 [Example B-0509]
3. C[C@@H](NS(=O)(=O)c1cccc(C(F)(F)F)c1)c1[nH]nc(-c2ccc(F)cc2)c1-c1ccncc1 [Example B-0471]
4. CC(C)c1ccc(S(=O)(=O)N[C@H](C)c2[nH]nc(-c3ccc(F)cc3)c2-c2ccncc2)cc1 [Example B-0446]
5. C=CCNC(=O)N[C@H](C)c1[nH]nc(-c2ccc(F)cc2)c1-c1ccncc1 [Example B-0412]
Place the items in sequence of falling pIC50. Form field (ranking): labels in requested order.
3, 2, 5, 4, 1
(3: 7.57, 2: 7.00, 5: 6.62, 4: 6.11, 1: 5.75)

###

- Measurement target: human p38 kinase alpha (Homo sapiens)
- Construct: The coding region of the human p38a cDNA was obtained by PCR-amplification from RNA isolated from the human monocyte cell line THP.1; GST (N); made in house; host or cells: E. coli DH10B
- Run description: p38 kinase in vitro assay, phosphorylation of biotinylated PHAS-I with gamma 32P-ATP
- Assay type: biochemical
- Conditions used: @ 10.0 uM; read-out: P38 alpha kinase % inhib @ conc.
Property name: inhibition at 10 µM (%)

COc1cccc(NC(=O)NCc2[nH]nc(-c3ccc(F)cc3)c2-c2ccncc2)c1; 59
O=C(Cc1cccc2ccccc12)NCc1[nH]nc(-c2ccc(F)cc2)c1-c1ccncc1; 61
COc1ccc(NC(=O)NCc2[nH]nc(-c3ccc(F)cc3)c2-c2ccncc2)cc1; 59

###

- Measurement target: human p38 kinase alpha (Homo sapiens, UniProt Q16539)
- Construct: The coding region of the human p38a cDNA was obtained by PCR-amplification from RNA isolated from the human monocyte cell line THP.1; GST (N); made in house; host or cells: E. coli DH10B
- Run description: p38 kinase in vitro assay, phosphorylation of biotinylated PHAS-I with gamma 32P-ATP
- Format: biochemical
- Conditions used: read-out: P38 alpha kinase IC50
Property name: IC50 (nM)

1. COc1ccccc1C(=O)N[C@H](C)c1[nH]nc(-c2ccc(F)cc2)c1-c1ccncc1
2. C[C@@H](NS(=O)(=O)c1ccc(S(=O)(=O)c2ccccc2)s1)c1[nH]nc(-c2ccc(F)cc2)c1-c1ccncc1
Between these two entries, 1 and 2 , state which has the higher IC50. Answer format: the label of the selected item.
1
(1: 1000 nM, 2: 620 nM)

a. C[C@@H](NC(=O)c1ccccc1Cl)c1[nH]nc(-c2ccc(F)cc2)c1-c1ccncc1
b. O=C(NCc1[nH]nc(-c2ccc(F)cc2)c1-c1ccncc1)[C@@H]1CCCN1C(=O)OCC1c2ccccc2-c2ccccc21
c. CN1CCC(c2[nH]nc(-c3cccc(C(F)(F)F)c3)c2-c2ccncc2)CC1
d. C[C@@H](NC(=O)c1ccc(F)c(F)c1)c1[nH]nc(-c2ccc(F)cc2)c1-c1ccncc1
Please put the entries in order of rising IC50. Form field (ranking): labels in requested order.
c, d, a, b
(c: 27 nM, d: 49 nM, a: 140 nM, b: 1030 nM)

1. Cc1ccc(S(=O)(=O)NCc2[nH]nc(-c3ccc(F)cc3)c2-c2ccncc2)cc1
2. C[C@@H](NC(=O)Nc1ccc(F)cc1)c1[nH]nc(-c2ccc(F)cc2)c1-c1ccncc1
Between these two entries, 1 and 2 , state which has the higher IC50. Answer format: the label of the selected item.
1
